molecular target: hMCP-1 (Homo sapiens, UniProt P13500); assay: Inhibition of MCP-1-induced chemotaxis (48-well chamber, Example 21); assay type: cell-based; parameters: purchased PeproTech; conditions: THP-1 cells, 2.5 nM hMCP-1, 48-well chamber, 2 hr
Sequence (P13500 24-99): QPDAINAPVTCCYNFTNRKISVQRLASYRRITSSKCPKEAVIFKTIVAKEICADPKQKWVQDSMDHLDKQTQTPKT
Structures can show the parent of a compound that is named as a salt.
The label is condition met for IC50 below 4 µM and condition not met for IC50 equal to or exceeding 4 µM.

Worked examples, 8 molecules total:
{"columns": ["Molecule", "Label Class"],
 "data": [
  ["Cc1nn(C)c2ncc(C(=O)NC(=O)Nc3ccc(F)c(C(F)(F)F)c3)c(N3CCN(c4ccccc4)CC3)c12", "condition met"],
  ["Cc1nn(C)c2ncc(C(=O)NC(=O)Nc3ccc(F)c(C(F)(F)F)c3)c(NCCN(C)C)c12 [Compound 46, hydrochloride]", "condition met"],
  ["Cc1nn(C)c2ncc(C(=O)NC(=O)Nc3ccc(F)c(C(F)(F)F)c3)c(N3CCCCC3)c12", "condition met"],
  ["Cc1nn(C)c2ncc(C(=O)NC(=O)Nc3ccc(F)c(C(F)(F)F)c3)c(O)c12", "condition not met"],
  ["Cc1nn(C)c2ncc(C(=O)NC(=O)Nc3ccc(C(=O)N4CCN(C)CC4)c(Cl)c3)c(N3CCN(C)CC3)c12", "condition met"],
  ["Cc1nn(C)c2ncc(C(=O)NC(=O)Nc3cc(C(F)(F)F)cc(C(F)(F)F)c3)c(N3CCN(C)CC3)c12", "condition met"],
  ["Cc1nn(C)c2ncc(C(=O)NC(=O)Nc3ccc(F)c(C(F)(F)F)c3)c(N(CCO)CCO)c12", "condition met"],
  ["Cc1nn(C)c2ncc(C(=O)NC(=O)Nc3cccc(OC(F)(F)F)c3)c(N3CCN(C)CC3)c12", "condition met"]
]}

Now consider a different molecule.
Query: Hello, I'm reviewing records and need to know if IC50 of "Cc1nn(C)c2ncc(C(=O)NC(=O)Nc3ccc(F)c(C(F)(F)F)c3)c(N3CCOCC3)c12" is below 4 µM. Could you check?
Result: condition not met

* * *

target: hMCP-1 (Homo sapiens); assay: Inhibition of MCP-1-induced chemotaxis (48-well chamber, Example 21); type: cell-based; set-up: purchased PeproTech; conditions: THP-1 cells, 2.5 nM hMCP-1, 48-well chamber, 2 hr
Items are presented alongside their recorded IC50.
Form entry: enter the amount, then its unit.

Illustrative cases are given below, each with its answer.
{"columns": ["Compound Smiles", "Study Target", "Measured Metric", "Value"],
 "data": [
  ["Cc1nn(C)c2ncc(C(=O)NC(=O)Nc3cccc(C(C)C)c3)c(N3CCN(C)CC3)c12", "hMCP-1 (Homo sapiens)", "IC50", "4 µM"],
  ["Cc1nn(C)c2ncc(C(=O)NC(=O)Nc3cc(O)cc(C(F)(F)F)c3)c(N3CCN(C)CC3)c12", "hMCP-1 (Homo sapiens)", "IC50", "4 µM"]
]}

Consider now this further compound.
Query: Give its IC50 value. Item: "Cc1nn(C)c2ncc(C(=O)NC(=O)Nc3cccc(Cl)c3)c(N3CCN(C)CC3)c12"
Result: 4 µM
